Cited source: PubChem BioAssay (NCI)

Tested on: HCT-15 colon
Assay: NCI tumour cell line growth inhibition, 384-well format
Kindly state TGI for each of the entries shown.
Give bare numbers, in µM.

// for each molecule in input: emit TGI
1. COc1cc2c(cc1O)CCN[C@]21CS[C@@H]2c3c(OC(C)=O)c(C)c4c(c3[C@H](COC1=O)N1[C@@H]2[C@H]2c3c(cc(C)c(OC)c3O)C[C@@H]([C@@H]1O)N2C)OCO4
2. COc1ccc(-c2ccc3c(N4CCOC[C@@H]4C)nc(N4CCOC[C@@H]4C)nc3n2)cc1CO

1. 0.00524
2. 11.3

---

System: HOP-92 NSCLC
Assay: NCI tumour cell line growth inhibition, 384-well format
parameter-measured: TGI (nM)
Give bare numbers, in nM.

| structure-notation | parameter-measured | unit-info | data-value |
| --- | --- | --- | --- |
| COc1ccc(-c2ccc3c(N4CCOC[C@@H]4C)nc(N4CCOC[C@@H]4C)nc3n2)cc1CO | TGI | nM | 340 |

Now, please, on to the next compound.
So what does the record say about TGI for COc1cc2c(cc1O)CCN[C@]21CS[C@@H]2c3c(OC(C)=O)c(C)c4c(c3[C@H](COC1=O)N1[C@@H]2[C@H]2c3c(cc(C)c(OC)c3O)C[C@@H]([C@@H]1O)N2C)OCO4 ? 0.0954

---

System: SW-620 colon
Assay: NCI tumour cell line growth inhibition, 384-well format; in the data active = GI50 below about 0.43 µM; inactive = the rest
Respond using exactly one of the listed classes: active, inactive

| structure-notation | class |
| --- | --- |
| N[C@H](CCC(=O)N[C@@H](Cc1c[nH]c2ccccc12)C(=O)O)C(=O)O | inactive |
| COc1ccc(-c2ccc3c(N4CCOC[C@@H]4C)nc(N4CCOC[C@@H]4C)nc3n2)cc1CO | active |
| COc1cc2c(cc1O)CCN[C@]21CS[C@@H]2c3c(OC(C)=O)c(C)c4c(c3[C@H](COC1=O)N1[C@@H]2[C@H]2c3c(cc(C)c(OC)c3O)C[C@@H]([C@@H]1O)N2C)OCO4 | active |

Kindly review the next compound as well.
Field: outcome | Entry: CC(C)[C@H](O)C(=O)N[C@@H](C)C(=O)N[C@@H]1C(=O)N(C)CCc2ccccc21 inactive

---

Test system: SF-539 CNS
Test: NCI tumour cell line growth inhibition, 384-well format; in the data active = GI50 below about 0.43 µM; inactive = the rest
Respond using exactly one of the listed classes: true = active, false = inactive

Answered examples (3):
| structure-notation | class |
| --- | --- |
| CC(C)[C@H](O)C(=O)N[C@@H](C)C(=O)N[C@@H]1C(=O)N(C)CCc2ccccc21 | false |
| COc1cc2c(cc1O)CCN[C@]21CS[C@@H]2c3c(OC(C)=O)c(C)c4c(c3[C@H](COC1=O)N1[C@@H]2[C@H]2c3c(cc(C)c(OC)c3O)C[C@@H]([C@@H]1O)N2C)OCO4 | true |
| N[C@H](CCC(=O)N[C@@H](Cc1c[nH]c2ccccc12)C(=O)O)C(=O)O | false |

Please indicate how the test categorized COc1cc2c(Nc3cc(Cl)c(OC)c(Cl)c3)c(C#N)cnc2cc1OCCCN1CCN(C)CC1 . true
